Measured Inhibition at 100 μM values are reported for all entries that follow.
system: Botrytis cinerea (B05.10); assay: Resazurin antifungal assay of 180 alpha-factor peptide variants towards Botrytis (Example 2); type: cell-based; conditions: % inhibition of fungal growth, Botrytis conidia, peptide 100 μM, resazurin
Peptide text beside a SMILES is read from it.
assay.endpoint: Inhibition at 100 μM (%)

[[record]]
compound = "CSCC[C@H](NC(=O)CNC(=O)[C@H](CO)NC(=O)CNC(=O)[C@@H]1CCCN1C(=O)[C@H](CCCCN)NC(=O)[C@H](Cc1ccccc1)NC(=O)[C@H](CCC(N)=O)NC(=O)[C@H](CC(C)C)NC(=O)[C@H](Cc1c[nH]c2ccccc12)NC(=O)[C@H](Cc1c[nH]cn1)NC(=O)[C@@H](N)CCCCN)C(=O)N[C@@H](Cc1ccc(O)cc1)C(=O)O [compound 64] (H-KHWLQFKPGSGMY-OH; N-terminus and C-terminus assumed)"
tgt = "Botrytis cinerea (B05.10)"
limit_sign = "="
numeric_readout = 100

[[record]]
compound = "CSCC[C@H](NC(=O)[C@@H]1CCCN1C(=O)[C@H](CCC(N)=O)NC(=O)CNC(=O)[C@@H]1CCCN1C(=O)[C@H](CCCCN)NC(=O)[C@H](CC(C)C)NC(=O)[C@H](C)NC(=O)[C@H](CC(C)C)NC(=O)[C@H](Cc1ccc(O)cc1)NC(=O)[C@H](Cc1c[nH]cn1)NC(=O)[C@@H](N)CCCCN)C(=O)N[C@@H](Cc1ccc(O)cc1)C(=O)O [compound 103] (H-KHYLALKPGQPMY-OH; N-terminus and C-terminus assumed)"
tgt = "Botrytis cinerea (B05.10)"
limit_sign = "="
numeric_readout = 98.77

[[record]]
compound = "CC[C@H](C)[C@H](NC(=O)[C@@H](NC(=O)[C@H](Cc1c[nH]cn1)NC(=O)[C@@H]1CCCN1)[C@@H](C)O)C(=O)N[C@@H](CCC(N)=O)C(=O)N[C@@H](CC(C)C)C(=O)N[C@@H](Cc1c[nH]c2ccccc12)C(=O)N[C@@H](CCCCN)C(=O)NCC(=O)N[C@@H](CCC(N)=O)C(=O)N1CCC[C@H]1C(=O)N[C@@H](CCSC)C(=O)N[C@@H](Cc1ccc(O)cc1)C(=O)O [compound 169] (H-PHTIQLWKGQPMY-OH; N-terminus and C-terminus assumed)"
tgt = "Botrytis cinerea (B05.10)"
limit_sign = "<"
numeric_readout = 90

[[record]]
compound = "CSCC[C@H](NC(=O)[C@@H]1CCCN1C(=O)[C@H](CCC(N)=O)NC(=O)CNC(=O)[C@@H]1CCCN1C(=O)[C@H](CCCCN)NC(=O)[C@H](CC(C)C)NC(=O)[C@H](CCC(N)=O)NC(=O)CNC(=O)[C@H](CO)NC(=O)[C@H](CCC(N)=O)NC(=O)[C@@H](N)Cc1c[nH]c2ccccc12)C(=O)N[C@@H](Cc1ccc(O)cc1)C(=O)O [compound 117] (H-WQSGQLKPGQPMY-OH; N-terminus and C-terminus assumed)"
tgt = "Botrytis cinerea (B05.10)"
limit_sign = "<"
numeric_readout = 90

[[record]]
compound = "CSCC[C@H](NC(=O)[C@@H]1CCCN1C(=O)[C@H](CCC(N)=O)NC(=O)CNC(=O)[C@H](CCCNC(=N)N)NC(=O)[C@H](CCCCN)NC(=O)[C@H](CC(C)C)NC(=O)[C@H](CCC(N)=O)NC(=O)[C@H](CC(C)C)NC(=O)[C@@H](NC(=O)[C@H](Cc1c[nH]cn1)NC(=O)[C@@H](N)CCCCN)[C@@H](C)O)C(=O)N[C@@H](Cc1ccc(O)cc1)C(=O)O [compound 93] (H-KHTLQLKRGQPMY-OH; N-terminus and C-terminus assumed)"
tgt = "Botrytis cinerea (B05.10)"
limit_sign = "="
numeric_readout = 100

[[record]]
compound = "CC[C@H](C)[C@H](NC(=O)[C@H](Cc1c[nH]c2ccccc12)NC(=O)[C@H](CCC(=O)O)NC(=O)[C@@H](N)CCCCN)C(=O)N[C@@H](CCC(N)=O)C(=O)N[C@@H](CC(C)C)C(=O)N[C@@H](CCCCN)C(=O)N[C@@H](CC(C)C)C(=O)NCC(=O)N[C@@H](CCC(N)=O)C(=O)N1CCC[C@H]1C(=O)N[C@@H](CCSC)C(=O)N[C@@H](Cc1ccc(O)cc1)C(=O)O [compound 31] (H-KEWIQLKLGQPMY-OH; N-terminus and C-terminus assumed)"
tgt = "Botrytis cinerea (B05.10)"
limit_sign = "<"
numeric_readout = 90

[[record]]
compound = "CSCC[C@H](NC(=O)[C@@H]1CCCN1C(=O)[C@H](CCC(=O)O)NC(=O)CNC(=O)[C@@H](NC(=O)CNC(=O)[C@H](CC(C)C)NC(=O)[C@H](CCCCN)NC(=O)[C@H](CC(C)C)NC(=O)[C@H](Cc1c[nH]c2ccccc12)NC(=O)[C@H](Cc1c[nH]cn1)NC(=O)[C@@H](N)Cc1c[nH]c2ccccc12)[C@@H](C)O)C(=O)N[C@@H](Cc1ccc(O)cc1)C(=O)O [compound 119] (H-WHWLKLGTGEPMY-OH; N-terminus and C-terminus assumed)"
tgt = "Botrytis cinerea (B05.10)"
limit_sign = "="
numeric_readout = 98.65

[[record]]
compound = "CSCC[C@H](NC(=O)[C@@H]1CCCN1C(=O)[C@H](CCC(=O)O)NC(=O)CNC(=O)[C@@H]1CCCN1C(=O)[C@H](CCCCN)NC(=O)[C@H](CC(C)C)NC(=O)[C@H](CC(N)=O)NC(=O)[C@H](CC(C)C)NC(=O)[C@H](Cc1c[nH]c2ccccc12)NC(=O)[C@H](Cc1c[nH]cn1)NC(=O)[C@@H]1CCCN1)C(=O)N[C@@H](Cc1ccc(O)cc1)C(=O)O [compound 158] (H-PHWLNLKPGEPMY-OH; N-terminus and C-terminus assumed)"
tgt = "Botrytis cinerea (B05.10)"
limit_sign = "<"
numeric_readout = 90

[[record]]
compound = "CSCC[C@H](NC(=O)[C@@H]1CCCN1C(=O)[C@H](CCC(N)=O)NC(=O)CNC(=O)[C@@H](NC(=O)[C@H](CCCCN)NC(=O)[C@H](Cc1ccccc1)NC(=O)[C@H](CCC(N)=O)NC(=O)[C@H](CC(C)C)NC(=O)[C@H](CC(C)C)NC(=O)[C@H](Cc1c[nH]cn1)NC(=O)[C@@H](N)Cc1c[nH]c2ccccc12)C(C)C)C(=O)N[C@@H](Cc1ccc(O)cc1)C(=O)O [compound 25] (H-WHLLQFKVGQPMY-OH; N-terminus and C-terminus assumed)"
tgt = "Botrytis cinerea (B05.10)"
limit_sign = "="
numeric_readout = 100


Entry source: patent US20250382332A1
